Experiment: Antagonist activity at AR in human bicalutamide-resistant LNCAP cells assessed as inhibition of cell proliferation after 6 days
metric: pIC50
Keep in mind that pIC50 stands for -log10 of concentration in molar terms.

For orientation, consider the following solved cases.
CC1(C)C(=O)N(c2ccc(C#N)c(C(F)(F)F)c2)C(=S)N1c1ccccc1 : 7.00
CC1(C)C(=O)N(c2ccc(C#N)c(Cl)c2)C(=S)N1CCCS(N)(=O)=O : 8.00
CC1(C)C(=O)N(c2ccc(C#N)c(C(F)(F)F)c2)C(=S)N1c1cccc(S(N)(=O)=O)c1 : 7.00
CC1(C)C(=O)N(c2ccc(C#N)c(Cl)c2)C(=S)N1c1cccc(S(N)(=O)=O)n1 : 7.00

Dear colleague, please send me the reported pIC50 for "CC1(C)C(=O)N(c2ccc(C#N)c(Cl)c2)C(=S)N1c1cncc(S(N)(=O)=O)c1" when you can.
7.30

* * *

Reported pIC50 is given for each of the following compounds.
Assay: Antagonist activity at AR in human bicalutamide-resistant LNCAP cells assessed as inhibition of cell proliferation after 6 days
Keep in mind that pIC50 stands for -log10 of concentration in molar terms.

For orientation, consider the following solved cases.
CC1(C)C(=O)N(c2ccc(C#N)c(Cl)c2)C(=S)N1c1cccc(S(N)(=O)=O)c1 : 7.00
CC1(C)C(=O)N(c2ccc(C#N)c(C(F)(F)F)c2)C(=S)N1c1ccnc(S(N)(=O)=O)c1 : 7.10
CC1(C)C(=O)N(c2ccc(C#N)c(C(F)(F)F)c2)C(=S)N1c1cncc(S(N)(=O)=O)c1 : 7.52

// switching to the query compound
Dear colleague, please send me the reported pIC50 for "CC1(C)C(=O)N(c2ccc(C#N)c(C(F)(F)F)c2)C(=S)N1c1cccc(S(N)(=O)=O)n1" when you can.
7.00
